Assay: physchem
Conditions: 23 °C, fassif, thermodynamic from solid
Each record here notes measured log10 solubility thermodynamic.
Short version: log10 scale, solubility thermodynamic, µg/mL.

Please review the entries below; each comes with its answer.
INSERT INTO assay_data (molecule, readout, recordedvalue) VALUES
  ('CC1=NO[C@@]2(CC[C@H](C)N3C[C@H]2n2cc(C(=O)NCc4ccc(F)cc4F)c(=O)c(OCOC(=O)OCc4ccc(OP(=O)(O)O)cc4)c2C3=O)C1 [Compound 19]', 'log10 solubility thermodynamic', 2.59),
  ('CC1=NO[C@@]2(CC[C@H](C)N3C[C@H]2n2cc(C(=O)NCc4ccc(F)cc4F)c(=O)c(OCOC(=O)CC(C)(C)c4c(CC(=O)O)cc(C)cc4OP(=O)(O)O)c2C3=O)C1 [Compound 20]', 'log10 solubility thermodynamic', 3.64),
  ('COC(=O)CN(Cc1cccnc1N(C)C(=O)Oc1c2n(cc(C(=O)NCc3ccc(F)cc3F)c1=O)[C@@H]1CN(C2=O)[C@@H](C)CC[C@]12CC(C)=NO2)C(=O)OCOP(=O)(O)O [Compound 34]', 'log10 solubility thermodynamic', 3.69),
  ('CC1=NO[C@@]2(CC[C@H](C)N3C[C@H]2n2cc(C(=O)NCc4ccc(F)cc4F)c(=O)c(OCOC(=O)N(C)Cc4ccc(C(=O)O)cc4OP(=O)(O)O)c2C3=O)C1 [Compound 74]', 'log10 solubility thermodynamic', 3.69),
  ('CC1=NO[C@@]2(CC[C@H](C)N3C[C@H]2n2cc(C(=O)NCc4ccc(F)cc4F)c(=O)c(OCOC(=O)OCCC(C)(C)c4c(CC(=O)N[C@@H](CC(=O)O)C(=O)O)cc(C)cc4OP(=O)(O)O)c2C3=O)C1 [Compound 24]', 'log10 solubility thermodynamic', 3.69);

Specify reported log10 solubility thermodynamic for the molecule shown: CC1=NO[C@@]2(CC[C@H](C)N3C[C@H]2n2cc(C(=O)NCc4ccc(F)cc4F)c(=O)c(OCOC(=O)CC(C)(C)c4c(CC(=O)N5CCOCC5)cc(C)cc4OP(=O)(O)O)c2C3=O)C1 [Compound 58]
3.67

Give the value of log10 solubility thermodynamic reported for the following: CC1=NO[C@@]2(CC[C@H](C)N3C[C@H]2n2cc(C(=O)NCc4ccc(F)cc4F)c(=O)c(OC(=O)N(C)c4ncccc4CN(CC(=O)O)C(=O)OCOP(=O)(O)O)c2C3=O)C1 [Compound 6]
3.68

Provide log10 solubility thermodynamic value for the following molecule: CC1=NO[C@@]2(CC[C@H](C)N3C[C@H]2n2cc(C(=O)NCc4ccc(F)cc4F)c(=O)c(OCOC(=O)N(C)Cc4cc(C(=O)O)ccc4OP(=O)(O)O)c2C3=O)C1 [Compound 76]
3.61
